From: patent US20250345446A1

# targetDesc: soluble ectodomain of sortilin-6his (Homo sapiens, UniProt Q99523, V650M)
# Construct: the soluble ectodomain of sortilin-6his is measured by microscale thermophoresis (MST)
# Sequence (Q99523 with tags, fused parts or gaps V650M): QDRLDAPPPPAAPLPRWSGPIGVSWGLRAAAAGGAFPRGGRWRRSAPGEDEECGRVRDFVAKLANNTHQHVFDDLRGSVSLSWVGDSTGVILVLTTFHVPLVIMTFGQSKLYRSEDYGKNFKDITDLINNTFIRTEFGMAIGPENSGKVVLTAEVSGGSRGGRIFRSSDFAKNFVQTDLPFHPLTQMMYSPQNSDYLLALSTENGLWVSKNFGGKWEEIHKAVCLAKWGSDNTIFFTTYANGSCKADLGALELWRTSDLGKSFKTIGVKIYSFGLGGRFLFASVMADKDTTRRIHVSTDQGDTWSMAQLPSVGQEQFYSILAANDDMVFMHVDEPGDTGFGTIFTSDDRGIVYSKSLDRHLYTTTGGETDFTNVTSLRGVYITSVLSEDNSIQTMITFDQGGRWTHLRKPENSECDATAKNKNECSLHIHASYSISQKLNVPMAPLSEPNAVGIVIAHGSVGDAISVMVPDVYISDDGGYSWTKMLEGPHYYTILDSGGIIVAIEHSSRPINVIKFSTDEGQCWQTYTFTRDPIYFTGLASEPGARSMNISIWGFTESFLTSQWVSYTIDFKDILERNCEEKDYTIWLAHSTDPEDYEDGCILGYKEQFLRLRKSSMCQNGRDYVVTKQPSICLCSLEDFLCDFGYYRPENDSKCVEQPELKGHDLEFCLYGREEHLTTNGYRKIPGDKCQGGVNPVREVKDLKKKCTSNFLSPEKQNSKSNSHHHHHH
# assayProcedure: MST binding to soluble ectodomain of sortilin-6his
# studyConditions: Table 1; biotin-linker-peptide bifunctional compounds; MST; read-out: KD score, binding to sortilin (Kd)
# Protocol: At this point the plate was sealed with adhesive strip and placed on an Eppendorf thermomixer to shake at 600 rpm for 3 min before spinning on a Fisherbrand plate-spinner for 15 seconds and further incubation 1 hrs at 19° C. MST was measured on a Monolith NT. Automated (Nanotemper) in standard-treated capillaries at 5% LED-power and high MST-power. Dose-response was extracted from the raw thermographs at 20 sec hot-time and the dissociation constant was estimated by sigmoidal curve fitting in MO. […]
pKd: −log10 of the molar value. Residues, ends and D or L forms follow the SMILES beside them. *: point of attachment. Biotin = O=C1N[C@H]2[C@H](CS[C@H]2CCCCC(=O)*)N1
pKd listing for selected molecules.

molecule	targetDesc	pKd
CC(C)C[C@H](NC(=O)[C@H](CC(C)C)NC(=O)[C@H](CCC(N)=O)NC(=O)[C@H](Cc1ccccc1)NC(=O)CNC(=O)CNC(=O)CNC(=O)CNC(=O)[C@H](CO)NC(=O)CNC(=O)CNC(=O)CCCC[C@@H]1SC[C@@H]2NC(=O)N[C@@H]21)C(=O)O [compound 143] (Biotin-GGSGGGGFQLL-OH)	soluble ectodomain of sortilin-6his (Homo sapiens, UniProt Q99523, V650M)	> 7.00
CC(C)C[C@H](NC(=O)[C@H](CC(C)C)NC(=O)[C@H](CCC(N)=O)NC(=O)[C@H](Cc1ccccc1)NC(=O)CNC(=O)[C@H](CO)NC(=O)CNC(=O)CNC(=O)CNC(=O)CNC(=O)[C@H](CO)NC(=O)CNC(=O)CNC(=O)CCCC[C@@H]1SC[C@@H]2NC(=O)N[C@@H]21)C(=O)O [compound 145] (Biotin-GGSGGGGSGFQLL-OH)	soluble ectodomain of sortilin-6his (Homo sapiens, UniProt Q99523, V650M)	> 7.00
CC(C)C[C@H](NC(=O)[C@H](CC(C)C)NC(=O)[C@H](CCC(N)=O)NC(=O)[C@H](CCCNC(=N)N)NC(=O)CCCC[C@@H]1SC[C@@H]2NC(=O)N[C@@H]21)C(=O)O [compound 154] (Biotin-RQLL-OH)	soluble ectodomain of sortilin-6his (Homo sapiens, UniProt Q99523, V650M)	> 7.00
CC(C)C[C@H](NC(=O)[C@H](CC(C)C)NC(=O)[C@H](CCC(N)=O)NC(=O)[C@H](Cc1ccccc1)NC(=O)[C@H](CO)NC(=O)CNC(=O)CNC(=O)CNC(=O)CNC(=O)[C@H](CO)NC(=O)CNC(=O)CNC(=O)CNC(=O)CNC(=O)[C@H](CO)NC(=O)CNC(=O)CNC(=O)CCCC[C@@H]1SC[C@@H]2NC(=O)N[C@@H]21)C(=O)O [compound 146] (Biotin-GGSGGGGSGGGGSFQLL-OH)	soluble ectodomain of sortilin-6his (Homo sapiens, UniProt Q99523, V650M)	5.70 to 7.00
CC(C)C[C@H](NC(=O)[C@H](CC(C)C)NC(=O)[C@H](CCC(N)=O)NC(=O)[C@H](CCCNC(=N)N)NC(=O)[C@H](CO)NC(=O)CNC(=O)CNC(=O)CCCC[C@@H]1SC[C@@H]2NC(=O)N[C@@H]21)C(=O)O [compound 152] (Biotin-GGSRQLL-OH)	soluble ectodomain of sortilin-6his (Homo sapiens, UniProt Q99523, V650M)	5.70 to 7.00
CC(C)C[C@H](NC(=O)[C@H](CC(C)C)NC(=O)[C@H](CCC(N)=O)NC(=O)[C@H](CCCNC(=N)N)NC(=O)CNC(=O)[C@H](CO)NC(=O)CNC(=O)CNC(=O)CNC(=O)CNC(=O)[C@H](CO)NC(=O)CNC(=O)CNC(=O)CCCC[C@@H]1SC[C@@H]2NC(=O)N[C@@H]21)C(=O)O [compound 141] (Biotin-GGSGGGGSGRQLL-OH)	soluble ectodomain of sortilin-6his (Homo sapiens, UniProt Q99523, V650M)	> 7.00
CC(C)C[C@H](NC(=O)[C@H](CC(C)C)NC(=O)[C@H](CCC(N)=O)NC(=O)[C@H](CCCNC(=N)N)NC(=O)CNC(=O)CNC(=O)CCCC[C@@H]1SC[C@@H]2NC(=O)N[C@@H]21)C(=O)O [compound 153] (Biotin-GGRQLL-OH)	soluble ectodomain of sortilin-6his (Homo sapiens, UniProt Q99523, V650M)	> 7.00
CC(C)C[C@H](NC(=O)[C@H](CC(C)C)NC(=O)[C@H](CCC(N)=O)NC(=O)[C@H](CCCNC(=N)N)NC(=O)[C@H](CO)NC(=O)CNC(=O)CNC(=O)CNC(=O)CNC(=O)[C@H](CO)NC(=O)CNC(=O)CNC(=O)CNC(=O)CNC(=O)[C@H](CO)NC(=O)CNC(=O)CNC(=O)CCCC[C@@H]1SC[C@@H]2NC(=O)N[C@@H]21)C(=O)O [compound 142] (Biotin-GGSGGGGSGGGGSRQLL-OH)	soluble ectodomain of sortilin-6his (Homo sapiens, UniProt Q99523, V650M)	> 7.00
CC(C)C[C@H](NC(=O)[C@H](CC(C)C)NC(=O)[C@H](CCC(N)=O)NC(=O)[C@H](CCCNC(=N)N)NC(=O)CNC(=O)CNC(=O)CNC(=O)[C@H](CO)NC(=O)CNC(=O)CNC(=O)CNC(=O)CNC(=O)[C@H](CO)NC(=O)CNC(=O)CNC(=O)CCCC[C@@H]1SC[C@@H]2NC(=O)N[C@@H]21)C(=O)O [compound 149] (Biotin-GGSGGGGSGGGRQLL-OH)	soluble ectodomain of sortilin-6his (Homo sapiens, UniProt Q99523, V650M)	5.70 to 7.00
